molecular target: Human immunodeficiency virus type 1 integrase (Human immunodeficiency virus 1); assay: Inhibitory concentration of compound against 3'-processing of HIV-1 integrase in experiment 1
Sequence (Q7ZJM1 whole entry): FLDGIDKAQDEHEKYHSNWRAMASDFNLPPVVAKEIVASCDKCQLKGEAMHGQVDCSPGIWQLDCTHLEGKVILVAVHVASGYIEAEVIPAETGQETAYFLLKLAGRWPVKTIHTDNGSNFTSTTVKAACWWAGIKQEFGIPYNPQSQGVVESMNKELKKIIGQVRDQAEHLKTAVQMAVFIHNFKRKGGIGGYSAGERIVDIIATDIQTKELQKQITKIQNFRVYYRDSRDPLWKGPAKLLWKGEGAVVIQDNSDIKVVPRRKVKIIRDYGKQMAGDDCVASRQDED
Outcome Measure: IC50 (µM)
Please reply with the bare figure in µM and do not write the unit itself.

Record excerpt, results attached:
Compound | IC50, µM
O=C(O)c1cnc2c(ccc3ncc(C(=O)O)c(O)c32)c1O | 7.6
O=C1OC2C(O)COC2(O)C1(O)Cc1cc(O)c(O)c(Br)c1Br (centres undefined) | 64.7
O=C(NC(Cc1ccc(O)c(O)c1)C(=O)OCc1ccccc1)c1ccc([N+](=O)[O-])cc1 (centres undefined) | 163

Look up IC50 of C[C@@](O)(/C=C/[C@H]1CC=CC(=O)O1)[C@@H](C[C@@H](O)C=CC=C/C=C/CO)OP(=O)(O)O [FOSTRIECIN] and report it. 41.3

Supply IC50 value. Item: Cc1cc(C(O)(c2cc(C)c(O)c(C(=O)O)c2)c2cc(C)c(O)c(C(=O)O)c2)cc(C(=O)O)c1O 35.8
